measured_parameter: melting point

> print(dat)
                                smiles.repr         result
1  O=c1[nH]c(=O)n(Cc2ccccc2)c2nc3n(-c4ccccc4)c(-c4ccc(F)cc4)c(Br)n3c12  276 to 278 °C
2  COc1ccccc1-n1c(-c2ccccc2)c(Br)n2c3c(=O)[nH]c(=O)n(C)c3nc12  274 to 276 °C
3  O=c1[nH]c(=O)n(Cc2ccccc2)c2nc3n(-c4ccccc4)c(-c4ccc(F)cc4)cn3c12  250 to 252 °C
4  COc1ccccc1-n1c(-c2ccccc2)cn2c3c(=O)[nH]c(=O)n(Cc4ccccc4)c3nc12  301 to 303 °C

Prompt line: State the recorded melting point for this entry: CNc1ccc(-c2cn3c4c(=O)[nH]c(=O)n(Cc5ccccc5)c4nc3n2C)cc1
Response line: 288 to 290 °C

---

# target_of_assay: EphB4 (Homo sapiens)
# Sequence (P54760 16-987): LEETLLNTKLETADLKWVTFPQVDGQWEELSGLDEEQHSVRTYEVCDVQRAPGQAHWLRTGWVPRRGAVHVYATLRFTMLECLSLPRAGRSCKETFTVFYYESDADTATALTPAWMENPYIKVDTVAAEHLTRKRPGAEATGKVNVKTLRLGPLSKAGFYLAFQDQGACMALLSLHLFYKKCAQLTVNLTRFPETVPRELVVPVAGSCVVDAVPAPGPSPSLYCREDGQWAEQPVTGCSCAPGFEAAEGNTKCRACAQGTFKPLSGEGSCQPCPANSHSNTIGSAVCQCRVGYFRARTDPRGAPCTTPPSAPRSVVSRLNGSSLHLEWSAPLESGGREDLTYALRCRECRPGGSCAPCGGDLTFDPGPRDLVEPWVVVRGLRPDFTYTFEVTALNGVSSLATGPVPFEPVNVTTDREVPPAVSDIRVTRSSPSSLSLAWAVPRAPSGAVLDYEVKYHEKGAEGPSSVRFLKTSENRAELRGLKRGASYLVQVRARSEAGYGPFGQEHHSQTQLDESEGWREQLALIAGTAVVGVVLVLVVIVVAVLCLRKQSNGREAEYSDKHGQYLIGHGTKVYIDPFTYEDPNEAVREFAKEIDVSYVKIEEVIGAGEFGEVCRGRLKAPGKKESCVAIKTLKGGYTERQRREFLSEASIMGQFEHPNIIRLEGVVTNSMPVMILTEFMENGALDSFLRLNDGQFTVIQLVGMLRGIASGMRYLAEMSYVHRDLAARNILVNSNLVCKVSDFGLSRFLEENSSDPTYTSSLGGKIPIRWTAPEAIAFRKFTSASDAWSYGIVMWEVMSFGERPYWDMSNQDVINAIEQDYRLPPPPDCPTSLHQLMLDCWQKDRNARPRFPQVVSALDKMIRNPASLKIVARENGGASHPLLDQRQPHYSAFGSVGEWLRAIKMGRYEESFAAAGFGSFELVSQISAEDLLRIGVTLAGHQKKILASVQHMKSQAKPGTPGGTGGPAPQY
# experiment_summary: Panvera Z'Lyte FRET-based enzymatic assay
measured_parameter: IC50 (µM)

1: CCCn1c(-c2ccccc2)cn2c3c(=O)[nH]c(=O)n(C)c3nc12 [Compound 4]
2: COCCCn1c(-c2ccccc2)cn2c3c(=O)[nH]c(=O)n(C)c3nc12 [Compound 6]
Prompt line: Lab notebook, comparison: 1 versus 2 , higher IC50 goes to which? Respond with the label that goes with your answer.
Response line: 2
(2: 50 µM, 1: 1.9 µM)
